Measured values drawn from PubChem BioAssay (NCI) for this set.

- Tested on: A498 renal
- measurementProtocol: NCI-60 one-dose screen, 48 h (100 = growth as untreated, 0 = no growth, -100 = all killed)
- measurementSetup: 10 µM unless noted
About 83,000 compounds went through this panel and 20% of them were active in at least one assay; those are over-represented in the sample as a whole.
Criterion: growth meeting or surpassing 90%. Met: MET. Not met: NOT MET.

- compound: "O=C(NNc1nc2cc(F)ccc2n2cccc12)c1ccncn1"
  category: "NOT MET"
- compound: "CCc1cccc2c3c(sc12)C(c1ccc(Cl)cc1)C(C#N)=C(/N=C/c1ccc(Cl)cc1)O3 (stereo not given)"
  category: "NOT MET"
- compound: "O=C(CN1CCN(c2cc(=O)n(-c3ccccc3)c3ccccc23)CC1)Nc1ccc(F)cc1"
  category: "NOT MET"
- compound: "COc1cc2c(cc1OC)C(Sc1ccc(F)cc1)c1c(nc(N)c(C#N)c1N)O2 (stereo not given)"
  category: "NOT MET"
- compound: "CCNC(=O)N1CCc2cc(OC)c(OCCc3ccc(OC)nc3)cc2C1c1ccc(C)cc1C (stereo not given)"
  category: "NOT MET"
- compound: "Cc1occc1-c1nc2s/c(=C/c3ccc(-c4cc(C(F)(F)F)ccc4Cl)o3)c(=O)n2n1"
  category: "MET"
- compound: "O=C(CNc1nc(-c2cccc([N+](=O)[O-])c2)cs1)Nc1cccc([N+](=O)[O-])c1"
  category: "NOT MET"
- compound: "O=C(c1ccc(O)c(C(=O)N2Cc3ccc(OCCC[P+](c4ccccc4)(c4ccccc4)c4ccccc4)cc3C2)c1)N1Cc2cccc(F)c2C1"
  category: "NOT MET"
- compound: "CCn1c(SCC(=O)Nc2cccc(C(=O)/C=C/c3ccc(C)cc3)c2)nc2ccccc2c1=O"
  category: "MET"
- compound: "CC1(C)CC[C@]2(C(=O)O)CC[C@]3(C)C(=CC[C@@H]4[C@@]5(C)CC/C(=N\\OCCC#N)C(C)(C)[C@@H]5CC[C@]43C)[C@@H]2C1"
  category: "NOT MET"
- compound: "Cn1ccnc1C(=O)/C=C/c1ccc(CNC(=O)c2ccc(S(F)(F)(F)(F)F)cc2)cc1"
  category: "NOT MET"
- compound: "O=C(Nc1nc2ccc([N+](=O)[O-])cc2s1)Nc1ccccc1Br"
  category: "NOT MET"
- compound: "Cc1ccc(-n2c(/C=C3\\C(=O)Nc4ccccc43)ccc2CO)cc1"
  category: "NOT MET"
- compound: "Nn1c(N/N=C/c2nc3ccccc3s2)n[nH]c1=S"
  category: "NOT MET"
- compound: "COc1cc2oc(-c3cccc(C(=O)N[C@@H](CC(C)C)C(=O)OC(C)(C)C)c3)cc(=O)c2c(OC)c1OC"
  category: "MET"
- compound: "CS(=O)(=O)Nc1cc(-c2ccc3ncc(C#N)c(NCc4cccc(F)c4)c3c2)cnc1Cl"
  category: "NOT MET"
- compound: "CN(C)CCN(C)c1ccc2ncc(C#Cc3cncc(C(=O)Nc4ccc(CN5CCN(C)CC5)c(C(F)(F)F)c4)c3)n2n1"
  category: "MET"
- compound: "COc1ccc(S(=O)(=O)NCCCNc2nccc(-c3[nH]c(-c4ccccc4)nc3-c3ccc(Cl)c(O)c3)n2)cc1"
  category: "MET"
- compound: "COC(=O)c1ccc(NC2=C/C(=N/S(=O)(=O)c3ccc(C(=O)O)cc3)c3ccccc3C2=O)cc1"
  category: "MET"
- compound: "O=C(CSc1nnc(-c2ccc(Cl)cc2)n1-c1ccccc1)Nc1ccc(Br)cc1"
  category: "NOT MET"
- compound: "O=C(NNc1nc2cc(F)c(F)cc2n2cccc12)c1cnccn1"
  category: "NOT MET"
- compound: "CC[C@H](CO)Nc1ccc2ncc(C#Cc3cncc(C(=O)Nc4ccc(CN5CCN(C)CC5)c(C(F)(F)F)c4)c3)n2n1"
  category: "NOT MET"
- compound: "COc1cc(-c2nn(C(C)(C)C)cc2-c2ccnc(NCCCNS(=O)(=O)c3ccc(C)cc3)n2)ccc1Cl"
  category: "NOT MET"
- compound: "NC(=O)c1cccc(C#CCNC[C@H]2C[C@@H](n3ccc4c(Cl)ncnc43)[C@H](O)[C@@H]2O)c1"
  category: "MET"
- compound: "CC(C)(O)c1cncc(-c2ccc3ncnc(NCc4ccccc4)c3c2)c1"
  category: "NOT MET"
- compound: "Nc1ccccc1NC(=O)c1ccc(NC(=O)C/C=C/c2cccnc2)cn1"
  category: "NOT MET"
- compound: "C=C(C=O)[C@@H]1CC[C@]2(C)[C@H](C(=O)C=C3[C@H]4C[C@](C)(C(=O)OC)CC[C@]4(C)CC[C@]32C)[C@@]1(C)CCC#N"
  category: "MET"
- compound: "CC1(C)[C@@H](O)CC[C@]2(C)[C@H]3CC[C@@H]4[C@H]5[C@H](C(=O)/C=C\\c6ccncc6)CC[C@]5(O)CC[C@@]4(C)[C@]3(C)CC[C@@H]12"
  category: "NOT MET"
- compound: "CCc1ccc(SC2c3ccc(N(CC)CC)cc3Oc3nc(N)c(C#N)c(N)c32)cc1 (stereo not given)"
  category: "NOT MET"
- compound: "CC(=O)N1N=C(c2cccc(-n3cccc3)c2)CC1c1cccc(F)c1 (stereo not given)"
  category: "MET"
- compound: "COc1cccc(O)c1/C=C(/C)c1ccc2c(OC)cccc2[o+]1"
  category: "MET"
- compound: "CCCC(=O)NC(c1cccnc1)c1cc(C(C)(C)C)c2cccnc2c1O (stereo not given)"
  category: "NOT MET"

====

- System: NCI-H322M lung
- measurementProtocol: NCI-60 one-dose screen, 48 h (100 = growth as untreated, 0 = no growth, -100 = all killed)
- measurementSetup: 10 µM unless noted
About 83,000 compounds went through this panel and 20% of them were active in at least one assay; those are over-represented in the sample as a whole.
Each entry below carries its recorded growth.
reportedMetric: growth (%)

- compound: "C=C(C=O)[C@@H]1CC[C@]2(CO)CC[C@]3(C)[C@H](CC[C@@H]4[C@@]5(C)CCCNC(C)(C)[C@@H]5CC[C@]43C)[C@@H]12"
  reportedMetric: "growth"
  quantitativeReadout: 95.8
- compound: "O=C(CSc1nc2ccccc2c(=O)n1-c1ccccc1)Nc1ccc(-c2nc3ccc([N+](=O)[O-])cc3[nH]2)cc1"
  reportedMetric: "growth"
  quantitativeReadout: 97.8
- compound: "Cn1ccnc1C(=O)/C=C/c1ccc(NC(=O)c2c(F)c(F)c(F)c(F)c2F)cc1"
  reportedMetric: "growth"
  quantitativeReadout: 94.8
- compound: "CCn1c(SCC(=O)Nc2cccc(C(=O)/C=C/c3ccccc3Cl)c2)nc2ccccc2c1=O"
  reportedMetric: "growth"
  quantitativeReadout: 90.5
- compound: "O=C(Nc1ccc(F)c(F)c1)c1cc(-c2ccc(F)cc2F)ccc1O"
  reportedMetric: "growth"
  quantitativeReadout: 3.88
- compound: "Cn1cc(CNc2nc3ccc(OC/C(=C/F)CN)cc3o2)ccc1=O"
  reportedMetric: "growth"
  quantitativeReadout: 99.3
- compound: "COc1cccc(C(=O)Nc2cccc(C#Cc3cccc4[nH]nc(N)c34)c2)c1"
  reportedMetric: "growth"
  quantitativeReadout: 84.2
- compound: "O=S(=O)(NCCNc1nccc(-n2cnc3ccccc32)n1)c1ccc(Br)cc1"
  reportedMetric: "growth"
  quantitativeReadout: 107
- compound: "NS(=O)(=O)c1ccc(Nc2cc(-c3ccccc3)nc(SCC(=O)c3ccccc3)n2)cc1"
  reportedMetric: "growth"
  quantitativeReadout: 90.4
- compound: "O=S(=O)(NCCNc1nccc(-n2cnc3ccccc32)n1)c1ccc(C(F)(F)F)cc1"
  reportedMetric: "growth"
  quantitativeReadout: 85.3
- compound: "COc1ccc2c(c1)Oc1nc(N)c(C#N)c(N)c1C2Sc1ccc(C)cc1 (stereo not drawn)"
  reportedMetric: "growth"
  quantitativeReadout: 51.9
- compound: "O=S(=O)(NCCCNc1nccc(-c2[nH]c(-c3ccccc3)nc2-c2ccc(Cl)c(O)c2)n1)c1ccc(Br)cc1"
  reportedMetric: "growth"
  quantitativeReadout: 58.4
- compound: "COc1ccc(C2CC(c3cccc(Nc4nc(Cl)nc5cc(OC)c(OC)cc45)c3)=Nc3c(N)nc(N)nc3N2)cc1 (stereo not drawn)"
  reportedMetric: "growth"
  quantitativeReadout: 91.5
- compound: "Cc1c(F)cc(C(N)=O)cc1NCC(=O)Nc1ccc([N+](=O)[O-])cc1"
  reportedMetric: "growth"
  quantitativeReadout: 99.4
- compound: "COc1ccc([C@H]2[C@H](O)C(=O)N2c2cc(OC)c(OC)c(OC)c2)cc1F"
  reportedMetric: "growth"
  quantitativeReadout: 50.8
- compound: "COc1ccc(Cn2cc3c(c2-c2cc(OC)c(OC)c(OC)c2)CCc2c(CN4CCCC4)noc2-3)cc1"
  reportedMetric: "growth"
  quantitativeReadout: 51.8
- compound: "N#Cc1c(Nc2ccccc2)nn2c(-c3ccc([N+](=O)[O-])cc3)ccnc12"
  reportedMetric: "growth"
  quantitativeReadout: 102
- compound: "COc1ccc(OC)c(-c2nc(SCC(=O)c3ccc(Br)cc3)nc(Nc3ccc(S(N)(=O)=O)cc3)c2C#N)c1"
  reportedMetric: "growth"
  quantitativeReadout: 81.7
